- Tested on: BxPC3 cells
- experiment: Secondary ADC cell killing assay (antibody + anti-human Fc nanobody conjugated to SC236) on BxPC3
- Type: cell-based
- protocol conditions: Table 17; nanobody-SC236 20 nM, 120 hrs
experimental readout: EC50 (nM)

molecule="SRP2901-F01 (antibody, V domains shown) VH: MQVQVVESGGGLVKPGGSLRLSCAASGFSISSYDMSWIRQAPGKGLEWIGIIGSNGRTYYADSVKGRFTISRNTNENTVYLQMNSLRAEDTAVYYCARGLYDGTGNIWGQGTLVTVSS VL: MDIQMTQSPSSLSASVGDRVTITCQASQSVYGNNWLSWYQQKPGKAPKLLIYGASKLASGVPSRFSGSGSGTDFTLTISSLQPEDFATYYCQGTYYSGDWYFAFGGGTKVEIK" experimental_readout=EC50 result_number=0.364
molecule="SRP2901-E03 (antibody, V domains shown) VH: MEVQLVESGGGLVQPGGSLRLSCAASGFSISSYDMSWVRQAPGKGLEWIGIIGSNGRTYYPDSVKGRFTISRDNSKNTVTLQMNSLRAEDTAVYYCARGLYDGTGNIWGQGTLVTVSS VL: MELVMTQSPPTLSLSPGERVTLSCRASQSVYGNNWLSWYQQKPGQAPRLLIYGASKLATSIPARFSGSGSGTQFTLTISSLQPEDFAVYYCQGTYYSGDWYFAFGQGTKVEIK" experimental_readout=EC50 result_number=0.166
molecule="SRP2901-D03 (antibody, V domains shown) VH: MEVQLVESGGGLVQPGGSLRLSCAASGFSISSYDMSWVRQAPGKGLEWIGIIGSNGRTYYPDSVKGRFTISRDNSKNTVTLQMNSLRAEDTAVYYCARGLYDGTGNIWGQGTLVTVSS VL: MDLQMTQSPSSLSASVGDRVTITCRASQSVYGNNWLSWYQQKPGKAPKLLIYGASKLASGVPSRFSGSGSGTQFTLTISSLQPEDFATYYCQGTYYSGDWYFAFGQGTKVEIK" experimental_readout=EC50 result_number=0.184
molecule="SRP2901-B05 (antibody, V domains shown) VH: MQVQVQESGPGLVKPPGTLSLTCAVSGFSLSYYGVSWVRQPPGKGLEWIGTIDSSGRTYYNPSLKSRVTISNDNAPNTVSLKLSSVTAADTAVYYCARDFYGWNSGALDIWGQGTLVTVSS VL: MDLQLTQSPSTLSASVGDRVTITCRASQSVYSNKYLSWYQQKPGKAPKLLIYKASTLASGVPSRFSGSGSGTEFTLTISSLQPDDFATYYCAAAYSDDSDTAFGQGTKVEIK" experimental_readout=EC50 result_number=0.059
